Tested on: ACVRL1;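 also: KINOMEscan kinase panel screen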
Conditions: concentration: 1 μM, replicates: in singlicate; n = 1
Task for the reader: assign each of the following compounds its reported %Inh.
Kindly provide the numeric value in % only, without the unit symbol.

Q) Input `Fc1ccc(-c2ncn(C3CCNCC3)c2-c2ccnc(Oc3ccc(-c4ccccc4)cc3)n2)cc1` , output reported %Inh.
A) 19

Q) Give the value of %Inh reported for the following: `CC(C)(C)c1ccc2nccc(Nc3cccc(O)c3)c2c1`
A) 0

Q) Supply measured %Inh of `Cc1ccc(C(=O)N2CC[C@@H](O)C2)cc1-n1c(C)cc(OCc2ccc(F)cc2F)c(Br)c1=O` in your reply.
A) 0

Q) Specify measured %Inh for O=C(NC1CCN(c2ccnc(Nc3ccc(F)cc3)n2)C1)c1cc2ccccc2s1 (centres unmarked) .
A) 11

Q) Supply %Inh value. Item: `CCc1ccc(-c2ccc3c(c2)-c2c(cnn2C)S(=O)(=O)N3C)cc1`
A) 17

Q) Identify %Inh associated with the compound `Cn1cc(-c2[nH]c3cc(NC(=O)[C@H](N)C4CCCCC4)cc4c3c2C=NNC4=O)cn1`
A) 0

Q) Find the measured %Inh of `COc1cc(Nc2ncc3c(C)nc(-c4cc5ccccc5[nH]4)n3n2)cc(OC)c1OC` and report it.
A) 0

Q) Report measured %Inh; entry is `Cc1ccc(C(=O)Nc2ccc(Nc3ccnc4cc(-c5nccs5)ccc34)cc2O)cc1.Cl`
A) 0

Q) Provide one value: measured %Inh of `O=C(Nc1n[nH]c2cc(-c3ccoc3)ccc12)C1CC1`
A) 0

Q) Respond only with %Inh recorded for `COc1cc(Nc2nccc(-c3c(-c4cccc(NC(=O)c5c(F)cccc5F)c4)nn4ncccc34)n2)cc(OC)c1OC`
A) 0

Q) Please supply the value of reported %Inh for the item `CCn1c(-c2nonc2N)nc2c(C#CC(C)(C)O)nc(OC[C@H](N)c3ccccc3)cc21`
A) 0

Q) Answer with reported %Inh of `COc1cc2c(cc1OCCN1CCNCC1)ncc1c3ccc(C#N)cc3[nH]c21`
A) 0

Q) # return recorded %Inh for entry `Nc1ncc(-c2ccc3nccc(-c4ccncc4)c3c2)cc1S(=O)(=O)N1CCOCC1`
A) 0

Q) In one line, give reported %Inh of the entry `COC(=O)Nc1nc2ccc(Oc3ccc(NC(=O)Nc4cc(C(F)(F)F)ccc4F)cc3)cc2n1C.Cl` .
A) 0

Q) Supply %Inh value. Item: `O=C(Nc1cccc(-c2nn3ccccc3c2-c2ccnc(Nc3cccc(C(F)(F)F)c3)n2)c1)c1c(F)cccc1F`
A) 0

Q) Item `COc1cccc(C(=O)Nc2cccc(Oc3ccc4nc(NC(=O)C5CC5)cn4n3)c2)c1` : provide %Inh
A) 8

Q) Give %Inh for the following compound: `COCCOCCOc1cc2ncc3c4ccc(C#N)cc4[nH]c3c2cc1OC`
A) 0

This collection of values is drawn from paper PMC5540273.
